All values here come from patent US20190106487A1.

# assay_system: T1, human IL-1RAcP on 293T/17-FR cells (human, UniProt Q9NPH3 21-570)
# T1 sequence (looked up): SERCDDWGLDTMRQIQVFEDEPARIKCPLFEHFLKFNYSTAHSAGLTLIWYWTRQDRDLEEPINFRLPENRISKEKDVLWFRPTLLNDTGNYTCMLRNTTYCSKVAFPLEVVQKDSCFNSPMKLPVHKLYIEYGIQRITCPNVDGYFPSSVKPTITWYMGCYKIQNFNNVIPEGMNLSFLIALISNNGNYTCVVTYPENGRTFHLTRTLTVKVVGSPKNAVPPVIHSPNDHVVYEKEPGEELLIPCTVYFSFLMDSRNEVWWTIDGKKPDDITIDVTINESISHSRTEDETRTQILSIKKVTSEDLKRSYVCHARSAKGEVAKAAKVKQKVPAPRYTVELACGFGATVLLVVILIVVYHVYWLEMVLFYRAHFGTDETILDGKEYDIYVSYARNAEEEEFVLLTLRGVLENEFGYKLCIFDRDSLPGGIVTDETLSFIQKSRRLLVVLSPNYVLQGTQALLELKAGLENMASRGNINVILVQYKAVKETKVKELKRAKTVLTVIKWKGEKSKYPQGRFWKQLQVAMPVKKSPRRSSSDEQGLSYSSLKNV
# measurement_notes: cell-based or functional assay
endpoint: functional reporter gene assay (% inhibition), 0.2 µg/mL mAb (%)
State just the number; it will be interpreted in %.

(Q) Recorded functional reporter gene assay (% inhibition), 0.2 µg/mL mAb for P013.S.02.B.E03 (antibody, V domains shown, rabbit monoclonal antibody; also called P013.A.00091.A10) VH: QSVEESGGRLVTPGTPLTLTCTVSGFSLSDYYMGWVRQAPGKGLEWIGTIDGGGSTYYASWAKGRFTVSKTSTTVDLTITSPTTEDTAIYFCARNYYAGLSDVFFGWWGQGTLVTVSS VL: DVVMTQTPASVEAAVGGTVTIMCQASETIYSGLAWYQQKPGQPPKLLIYYTSSLASGVPSRFKGSGSGTEFTLTISDLESADAATYYCQTYYDSEGRSYGYNSFGGGTEVVVK , please?
(A) 12

(Q) Next up: P013.S.01.B.D06 (antibody, V domains shown, rabbit monoclonal antibody; also called P013.A.00029.D02) VH: QSLEESGGDLVKPGASLTLTCTASGFSFSSSYYMCWVRQAPGKGLEWIACIYAGSSGVTYYASWAKGRFTISDTSSTTVTLQMTSLTAADTATYFCASETDGNYFNLWGPGTLVTVSS VL: ALVMTQTPSPVSAAVGGTVTINCQASEDIYSNLAWFQQKPGQPPKLLIYRASTLASGVPSRFSGSGSGTEFTLTISGLQSDDAATYYCLGVYTYSTDIHAFGGGTEVVVK
(A) 66

(Q) Next up: P013.S.02.B.G04 (antibody, V domains shown, rabbit monoclonal antibody; also called P013.A.00015.A11) VH: QSLEESGGRLVTPGTPLTLTCTVSGFSLSRCAMIWVRQAPGKGLEWIGFIGRGGSTWYASWVNGRFTISKTSTTVDLKITSPTTEDTATYFCARDGDYSDYYTFDLWGQGTLVTVSS VL: DVVMTQTPASVSERVGGTVTIKCQASQSIGSNLAWYQQKPGQPPKLLIYGASNLESGVPSRFSGSGSGTEFTLSISGVQSADAATYYCQCSGYDTTGVFPFGGGSEVVVK
(A) 0
